test system: MDA-MB-468 breast; test: NCI-60 one-dose screen, 48 h; details: 10 µM unless noted
Compounds without any hit were thinned out: in the full panel of roughly 83,000, 20% have a hit. The source made the active and inactive calls. How the source made its calls: active means growth percent below 10; inactive means the rest.
Assign a class; possible classes are active, inactive

[[record]]
compound = "COc1ccc2c(c1)Oc1nc(N)c(C#N)c(N)c1C2Sc1ccc(C)cc1 (stereo unspecified)"
classification = "active"

[[record]]
compound = "C=C1C(=O)O[C@H]2[C@H]1CC/C(COC(=O)NCc1ccc(Cn3c(=O)sn(CCCl)c3=O)cc1)=C\\CC[C@@]1(C)O[C@@H]21"
classification = "active"

[[record]]
compound = "Cc1ccc(NC(=O)c2ccc(CN3CCN(C)CC3)c(C(F)(F)F)c2)cc1Oc1ccc(-c2[nH]nc3ncnc(N)c23)cc1"
classification = "inactive"

[[record]]
compound = "Cn1cc(-c2nc(-c3c[nH]c4c(Cl)nccc34)cs2)c2ccccc21"
classification = "active"

[[record]]
compound = "COc1ccc(C=Nc2c(C(=O)Nc3cccc(Cl)c3C)sc3nc(C)c(C(=O)/C=C/c4ccc(OC)cc4)cc23)cc1"
classification = "inactive"


Can you look up the reported call for `Cc1ccsc1/C=C/C1=NCCCN1C` for me?
inactive

GET /call?item= `CN(C)c1ccc(-c2ccc3[nH]c(=O)nc(-c4ccccc4)c3c2)cn1` returns the recorded outcome of this test.
inactive

* * *

Tested on: MDA-MB-468 breast
Experiment: NCI-60 one-dose screen, 48 h
Conditions: 10 µM unless noted
Protocol: Growth inhibition of the MDA-MB-468 human Breast tumor cell line is measured as a screen for anti-cancer activity. Cells are grown in 96 well plates and exposed to the test compound for 48 hours. Compounds are tested at a single concentration, which is 10^-5 M for most compounds. The reported endpoint is percent growth (GI% or GIPRCNT), where numbers from 0 - 100% represent growth inhibition, and numbers from -100% - 0 represent cell death. […]
About 83,000 compounds went through this panel and 20% of them were active in at least one assay; those are over-represented in the sample as a whole. Calls of active or inactive are those of the source. The calls were made as follows: active = growth percent below 10; inactive = the rest.
A correct response names exactly one class from y = active, n = inactive

Example results:
[[record]]
compound = "C#Cc1nc(C2=C(C)C(OC(=O)CCC(=O)O)CC2)cs1 (stereo not given)"
classification = "n"

[[record]]
compound = "COc1cc(/C=C2\\CN(C)CC3=C2Nc2nc(SC)[nH]c(=O)c2C3c2cc(OC)c(OC)c(OC)c2)cc(OC)c1OC (stereo not given)"
classification = "n"


Recorded call for `Cc1cnc(SCc2ccc(Cl)cc2)[nH]c1=S` ?
n

Name the outcome recorded for `CCC(=O)c1cc([N+](=O)[O-])c(Br)s1` in the assay.
n

Which outcome did this test record for the compound `CCOC(=O)n1ccn(C)c1=S` ?
n

Please share the test call associated with `CC1(C)OC(=O)CC1=O` .
n

For COc1ccc2c(c1)OC1=C(C(=O)OC1)C2c1cc(OC)c2c(c1)OCCO2 (stereo not given) , which call appears in the assay record?
y

What call does the record list for `COc1cc(C(=O)C[n+]2ccccc2)ccc1OC(C)=O` ?
n

Hello, I am checking results. What call was entered for `CCOC(=O)c1c(NC(=O)c2ccccc2)sc2c3c(ccc12)OCN(C)C3` ?
y

Please state the recorded outcome for this compound: `CC(C)=CCC[C@](C)(O)[C@H]1CC[C@]2(C)[C@@H]1CC[C@@H]1[C@@]3(C)CC[C@H](OC(=O)CCC(=O)O)C(C)(C)[C@@H]3CC[C@]12C`
n

* * *

tested on: MDA-MB-468 breast; test: NCI-60 one-dose screen, 48 h; settings: 10 µM unless noted
This is part of a sample that, as a whole, favours compounds with a hit. Of some 83,000 tested, about 20% had one in any assay. Activity calls are given as the source filed them. Rule for the calls: active = growth percent below 10; inactive = the rest.
Assign a class; possible classes are y (active), n (inactive)

[[record]]
molecule = "CCCCc1n(Cc2ccc3ccccc3c2)cc[n+]1Cc1ccc2ccccc2c1"
classification = "y"

[[record]]
molecule = "O=C(O)C1(C(=O)O)CCC1.[NH2-].[NH2-].[Pt+2]"
classification = "n"

[[record]]
molecule = "O=c1cc(-c2ccccc2)[nH]c(=S)[nH]1"
classification = "n"

[[record]]
molecule = "Cc1cc(OCCO)cc(C)c1Cl"
classification = "n"

[[record]]
molecule = "CN1C(=O)N(C)C2C1NN=c1s/c(=C\\c3ccsc3)c(=O)n12 (centres undefined)"
classification = "n"

[[record]]
molecule = "CCCCC1C(=O)N(c2ccccc2)N(c2ccccc2)C1=O"
classification = "n"


Recorded test outcome, item `CCOC(=O)c1c2c(n3ccc(NC(=O)CCN4CCCC4)cc13)C(=O)c1ncccc1C2=O`
y

* * *

test system: HCC-2998 colon; test: NCI-60 one-dose screen, 48 h (100 = growth as untreated, 0 = no growth, -100 = all killed); conditions: 10 µM
About 83,000 compounds went through this panel and 20% of them were active in at least one assay; those are over-represented in the sample as a whole.
Listed next: entries and their corresponding growth.
Dear colleague, please return just the value in %, with no unit written.

Some compounds with known growth results, for comparison:
[[record]]
compound = "Cc1ccc(-c2nc(C#N)c(S(=O)(=O)N3CCN(S(C)(=O)=O)CC3)o2)cc1"
measured_target = "HCC-2998 colon"
unit_name = "%"
experimental_value = 92.9

[[record]]
compound = "O=C(c1ccc(F)cc1)C(c1c[nH]c2ccccc12)c1c[nH]c2ccccc12"
measured_target = "HCC-2998 colon"
unit_name = "%"
experimental_value = 82.9


Look up and state reported growth for COc1cc(C2CC(c3ccccc3)=Nc3c(N)nc(N)nc3N2)ccc1Oc1nc(NCCO)nc(N2CCOCC2)n1 (stereo not drawn)
115

Indicate its recorded growth; the compound in question is `COc1ccccc1-n1cc(C#N)c(N)c1C(=O)c1ccc(Cl)cc1Cl`
58.5

Input `O=C(CC(=O)Nc1ccc(Oc2ncnc3scc(Nc4n[nH]c(=S)s4)c23)cc1)Nc1ccc(Cl)cc1` , output reported growth.
99.8

Please supply the value of reported growth for the item `C#C[C@]1(O)CC[C@H]2[C@@H]3CC=C4c5sc(Nc6ccc(C(F)(F)F)cn6)nc5CC[C@]4(C)[C@H]3CC[C@@]21C`
4.01

Return growth (reported value) for this compound: `Cc1ccc(COc2ccc(NC(=O)Nc3ccc(Cl)c(C(F)(F)F)c3)cc2)cc1`
83.7

Give recorded growth. Cc1ccc2sc3c(c2c1)Oc1nc[nH]c(=O)c1C3c1cccc(F)c1 (stereo not drawn)
118

* * *

system: UACC-62 melanoma; test: NCI-60 one-dose screen, 48 h (100 = growth as untreated, 0 = no growth, -100 = all killed); conditions: 10 µM
This is part of a sample that, as a whole, favours compounds with a hit. Of some 83,000 tested, about 20% had one in any assay. Active and inactive are the calls of the source. Rule for the calls: active = growth percent below 10; inactive = the rest.
readout kind: growth

Example entries and their recorded answers appear below.
[[record]]
compound = "Fc1ccc(-c2csc(Nc3cccc(Nc4nc(-c5ccc(F)cc5)cs4)c3)n2)cc1"
experimental_value = "57.1% (inactive)"

[[record]]
compound = "O=C(Nc1ccc(OCc2ccc(F)cc2)cc1)Nc1ccc(Cl)c(C(F)(F)F)c1"
experimental_value = "6.53% (active)"

[[record]]
compound = "COc1ccc(C(=O)COc2ccc(NC(=O)Nc3ccccc3)cc2)cc1"
experimental_value = "80% (inactive)"

[[record]]
compound = "Cc1ccc(COc2ccc(NC(=O)Nc3ccc(Cl)c(C(F)(F)F)c3)cc2)cc1"
experimental_value = "60.5% (inactive)"


Consider the compound `Cn1cc(-c2cc(N)n3nc(-c4cn(C)c5ccccc45)cc3n2)c2cc(F)ccc21` and give its recorded growth.
-67.7% (active)

State its growth for this compound: `Cn1cc(-c2cc3nc(-c4c[nH]c5ccccc45)cc(N)n3n2)c2cc(Cl)ccc21`
-85.8% (active)

Recall and state the measured growth for `Fc1ccc(/C=C/c2nc3ccccc3n3c(-c4ccc(Cl)cc4)nnc23)cc1` .
70.2% (inactive)

Note down growth recorded for COc1ccc(C2OC[C@@]3(C)C4CC[C@]5(C)C(CC=C6C7CC(C)(C)CC[C@]7(C(=O)O)CC[C@]65C)[C@@]4(C)C[C@@H](O)[C@@H]3O2)cc1 (stereo partly drawn)
85.3% (inactive)

Quick one: give measured growth for `Nc1nnc(-c2c[nH]c3ncc(Br)cc23)c(-c2c[nH]c3ccc(Br)cc23)n1`
24.4% (inactive)

For the compound Cc1ccc2sc3c(c2c1)Oc1nc[nH]c(=O)c1C3c1cccc(F)c1 (stereo not drawn) , report growth.
74.5% (inactive)

Look up and state reported growth for `CC1(C)CC(=O)C2=C(C1)N(Cc1ccc(C(=O)O)cc1)C1=C(C(=O)CC(C)(C)C1)C2c1ccc(Cl)cc1`
89.9% (inactive)

Quickly give me recorded growth for `O=C(CSc1nc2ccccc2c(=O)n1-c1ccc(Cl)cc1)Nc1ccc(-c2nc3ccccc3[nH]2)cc1`
-12.1% (active)

Identify measured growth associated with CCOC(=O)C1=C(N)N(c2ccc(C)cc2)C2=C(C(=O)CC(C)(C)C2)C1c1ccccc1Br (stereo not drawn)
71.8% (inactive)

Could you please provide reported growth for `O=C(Nc1ccc(Oc2ncnc3scc(Nc4n[nH]c(=S)s4)c23)cc1)C1(C(=O)Nc2cccc(C(F)(F)F)c2)CC1` ? Thanks!
86.5% (inactive)

Supply reported growth belonging to this compound: `C#C[C@]1(O)CC[C@H]2[C@@H]3CC=C4c5sc(Nc6ccc(C(F)(F)F)cn6)nc5CC[C@]4(C)[C@H]3CC[C@@]21C`
-45.9% (active)

Determine from records and report growth for `O=C(Nc1ccc(OCc2ccc(Cl)cc2)cc1)Nc1ccc(Cl)c(C(F)(F)F)c1`
16.8% (inactive)

Tell me its growth given `COc1cccc(O)c1/C=C1\SCc2cc3c(OC)cccc3[o+]c21` as the entry.
98.7% (inactive)

Assign growth to the following record: `COc1ccc(Cn2cc(C#N)c(N)c2C(C)=O)c(OC)c1`
98.1% (inactive)
